Exercise: for every item that follows, state its recorded IC50.
Biological target: NS3h_2a(JFH1) (Hepatitis C virus genotype 2a, UniProt Q99IB8)
Construct: truncated C-terminally His-tagged NS3 proteins lacking the N-terminal protease, called NS3h; His-tag (C); made in house
Sequence (Q99IB8 1196-1661): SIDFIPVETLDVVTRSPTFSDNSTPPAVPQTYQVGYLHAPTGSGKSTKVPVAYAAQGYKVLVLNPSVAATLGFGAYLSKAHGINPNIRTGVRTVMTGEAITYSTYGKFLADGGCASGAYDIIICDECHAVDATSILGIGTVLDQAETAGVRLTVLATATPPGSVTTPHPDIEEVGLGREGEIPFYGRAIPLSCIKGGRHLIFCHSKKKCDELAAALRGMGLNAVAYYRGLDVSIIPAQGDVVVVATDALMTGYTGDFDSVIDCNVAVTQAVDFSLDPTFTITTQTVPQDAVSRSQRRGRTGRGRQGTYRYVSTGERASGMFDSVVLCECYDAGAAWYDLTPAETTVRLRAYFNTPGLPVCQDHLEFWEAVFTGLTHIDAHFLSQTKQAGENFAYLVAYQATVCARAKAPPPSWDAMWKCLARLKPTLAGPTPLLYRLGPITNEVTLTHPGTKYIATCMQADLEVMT
Assay: MBHA, DNA substrate, genotype 2a helicase
Format: biochemical, hepatitis C virus genotype 2a(JFH1)
Conditions: genotype 2a (JFH1); read-out: Target Potency MBHA (IC50 avg., μM) 2a (JFH1) (converted)
# unit: µM | format: bare number

Entry Cc1ccc2nc(-c3ccc4nc(-c5ccc(NC(=O)c6cccc(C(F)(F)F)c6)cc5)sc4c3)sc2c1S(=O)(=O)O ; IC50 = 15.9

Entry COc1ccc(NC(=O)Nc2ccc(-c3nc4ccc(-c5nc6ccc(C)c(S(=O)(=O)O)c6s5)cc4s3)cc2)cc1 ; IC50 = 6.4

Entry Cc1ccc2nc(-c3ccc4nc(-c5ccc(NC(=O)c6ccncc6)cc5)sc4c3)sc2c1S(=O)(=O)O ; IC50 = 52

Entry Cc1ccc2nc(-c3ccc4nc(-c5ccc(NC(=O)c6cccc(C(F)(F)F)c6F)cc5)sc4c3)sc2c1S(=O)(=O)O ; IC50 = 8.1

Entry Cc1ccc2nc(-c3ccc4nc(-c5ccc(NC(=O)Nc6ccc(Cl)cc6)cc5)sc4c3)sc2c1S(=O)(=O)O ; IC50 = 4.4

Entry Cc1ccc2nc(-c3ccc4nc(-c5ccc(NC(=O)Nc6ccc(C(F)(F)F)cc6)cc5)sc4c3)sc2c1S(=O)(=O)O.N ; IC50 = 4

Entry Cc1ccc2nc(-c3ccc4nc(-c5ccc(NC(=O)Nc6ccccc6)cc5)sc4c3)sc2c1S(=O)(=O)O.N ; IC50 = 6

Entry Cc1ccc2nc(-c3ccc4nc(-c5ccc(N(C)C(=O)c6ccc7ccccc7c6)cc5)sc4c3)sc2c1S(=O)(=O)O ; IC50 = 13.5

Entry Cc1ccc2nc(-c3ccc4nc(-c5ccc(NC(=O)c6ccc(N(C)C)cc6)cc5)sc4c3)sc2c1S(=O)(=O)O ; IC50 = 6.4

Entry Cc1ccc2nc(-c3ccc(NC(=O)c4ccc(NC(=O)OCC5c6ccccc6-c6ccccc65)cc4)cc3)sc2c1S(=O)(=O)O.N ; IC50 = 12

Entry Cc1ccc2nc(-c3ccc(NC(=O)c4ccc(NC(=O)c5ccc(N)cc5)cc4)cc3)sc2c1S(=O)(=O)O.N ; IC50 = 26

Entry Cc1ccc2nc(-c3ccc(NC(=O)c4ccc(NC(=O)Nc5ccccc5)cc4)cc3)sc2c1S(=O)(=O)O.N ; IC50 = 32

Entry Cc1ccc(C(=O)Nc2ccc(-c3nc4ccc(-c5nc6ccc(C)c(S(=O)(=O)O)c6s5)cc4s3)cc2)cc1 ; IC50 = 2.5

Entry COc1ccc(S(=O)(=O)Nc2ccc(-c3nc4ccc(-c5nc6ccc(C)c(S(=O)(=O)O)c6s5)cc4s3)cc2)cc1 ; IC50 = 13.4

====

Molecular target: HCV NS3 helicase NS3h_1b(con1) (Hepatitis C virus genotype 1b, UniProt Q9WMX2)
Construct: truncated C-terminally His-tagged NS3 proteins lacking the N-terminal protease, called NS3h; His-tag (C); made in house
Sequence (Q9WMX2 1192-1657): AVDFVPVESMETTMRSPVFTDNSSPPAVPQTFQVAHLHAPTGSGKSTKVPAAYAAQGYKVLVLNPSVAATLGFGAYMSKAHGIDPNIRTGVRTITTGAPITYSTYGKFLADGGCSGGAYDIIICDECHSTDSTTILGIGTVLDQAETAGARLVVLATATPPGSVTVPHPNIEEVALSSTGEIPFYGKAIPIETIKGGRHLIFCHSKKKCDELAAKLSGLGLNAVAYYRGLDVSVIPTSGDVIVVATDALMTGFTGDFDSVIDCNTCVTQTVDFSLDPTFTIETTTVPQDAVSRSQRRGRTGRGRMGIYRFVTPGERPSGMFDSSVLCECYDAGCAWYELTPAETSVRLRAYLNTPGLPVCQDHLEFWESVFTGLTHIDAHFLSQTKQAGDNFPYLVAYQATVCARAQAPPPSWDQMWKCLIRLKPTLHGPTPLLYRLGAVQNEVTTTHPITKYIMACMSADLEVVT
Assay: MBHA screen of NCI mechanistic set library at 20 μM (percent inhibition, compound interference)
Assay type: biochemical
Conditions: compounds at 20 μM, MBHA with DNA substrate; calculated from Equation 1
MEASURED_METRIC: Inh. (%) (Inhibition)
# unit: % | format: bare number

Entry N#CC1=C(N)Oc2c(ccc3cccnc23)C1c1ccccc1 (stereo not shown) ; Inh. (%) (Inhibition) = 5.1

Entry O=C(ON=C1c2ccccc2C(Br)C(Br)c2ccccc21)c1ccccc1 (stereo not shown) ; Inh. (%) (Inhibition) = 15.2

Entry COC(=O)C1c2cc3c(c(O)c2C(OC2OC(C)C(OC)C(C)(OC)C2OC)CC1(C)O)C(=O)c1c(O)cc2c(c1C3=O)OC1OC2(C)C(O)C(N(C)C)C1O (stereo not shown) ; Inh. (%) (Inhibition) = 84.4

Entry O=C(O)c1ccccc1-c1ccccc1C(=O)Nc1ccc2c(c1)Cc1ccccc1-2 ; Inh. (%) (Inhibition) = −9.5
